# Test system: CP185
# assay protocol: qHTS profiling for inhibitors of Plasmodium falciparum proliferation (AID 504749); further: nearly all actives have a fitted effect of over 60% in size; further: potency means the concentration at half of the fitted maximal effect
# test conditions: P. falciparum in erythrocytes, SYBR Green DNA, 72 h; series mostly up to 28.7 µM
Records with an inconclusive call do not appear. The source made the active and inactive calls. The call rests on the fitted dose curve; in most records, active means well fitted inhibition curve with a large enough effect; inconclusive means small, poorly fitted or top-dose-only effect; inactive means flat fitted curve, though single readings scatter.
measurement type: Potency

O=C1c2ccccc2-c2n[nH]c3cccc1c23: inactive
O=C(O)CCNC(=O)c1ccc(N=Nc2ccc(O)c(C(=O)O)c2)cc1: inactive
CNC[C@@H](O)[C@@H](O)[C@H](O)[C@H](O)CO: inactive
Cc1cc(=O)c2c(O)c3c(O)cc(=O)c4c3c3c(cc(O)c1c23)C(C)(C)C=4O: 1580 nM (active)

With those in mind, consider the next molecule.
query: Entry `CC(C)c1ccc2oc3nc(N)c(C(=O)O)cc3c(=O)c2c1` , system CP185: what Potency was measured?
result: inactive

* * *

Below, each entry is listed with its recorded Z-AUC.
# assay protocol: qHTS drug screen for cell cycle checkpoint inhibitors in PARPi-resistant BRCA-mutant ovarian cancer cell lines. (AID 1963452)
# test conditions: PEO1/OlaR viability, CellTiter-Glo luminescence, 96 h; active compounds read low
Just the number, please, no unit after it.

CC(S)C(=O)NCC(=O)O (centres undefined): -0.465
CC(=O)NC[C@H]1CN(c2ccc(N3CCOCC3)c(F)c2)C(=O)O1: -0.303
Cc1ccc(Nc2nccc(N(C)c3ccc4c(C)n(C)nc4c3)n2)cc1S(N)(=O)=O: 1.07
CN1C(C(=O)Nc2ccccn2)=C(O)c2sccc2S1(=O)=O: 1.5
CC1(C)NC(=O)N(c2ccc([N+](=O)[O-])c(C(F)(F)F)c2)C1=O: 1.11
CS(=O)(=O)OCCCCOS(C)(=O)=O: 0.989

query: Return reported Z-AUC; argument: `Cc1cccc(-c2[nH]ncc2-c2ccc3ncccc3n2)n1`
result: -0.435

query: Return reported Z-AUC; argument: CCOC(=O)C(C)Oc1cccc2c(=O)n(CC(=O)Nc3ccc4c(c3)OCCO4)ccc12 (centres undefined)
result: 0.881

query: Return reported Z-AUC; argument: O=C(c1ccccc1)c1ccc2n1CCC2C(=O)O (centres undefined)
result: 1.02

* * *

# test target: Thioredoxin reductase 1, cytoplasmic (Rattus norvegicus)
# assay protocol: qHTS Assay for Inhibitors of Mammalian Selenoprotein Thioredoxin Reductase 1 (TrxR1) (AID 488773); further: nearly all actives have a fitted effect of over 40% in size
# test conditions: purified TrxR1 enzyme activity; inhibition; series mostly up to 57.1 µM
Results filed as inconclusive are left out. Active and inactive are the calls of the source. Calls come from the whole dose curve; as a rule, active = well fitted inhibition curve with a large enough effect; inconclusive = small, poorly fitted or top-dose-only effect; inactive = no such curve, though single readings can be large or run the other way.
// one of 1 for active, -1 for inactive, no free text

Record excerpt, results attached:
O=Nc1c(-c2c(O)[nH]c3cc(Br)ccc23)[nH]c2ccccc12: -1
CN(C)CCCC1(c2ccc(F)cc2)OCc2cc(C#N)ccc21 (configuration not stated): -1

query: Short answer needed: outcome of this test for `NCCCCNCCCN` ?
result: -1

query: Short answer needed: outcome of this test for `Nc1nc(OCc2ccccc2)c2[nH]cnc2n1` ?
result: -1

query: Short answer needed: outcome of this test for `Oc1ccc2ccccc2c1SSc1c(O)ccc2ccccc12` ?
result: -1

query: Short answer needed: outcome of this test for `O=c1c(O)c(-c2cc(O)c(O)c(O)c2)oc2cc(O)cc(O)c12` ?
result: 1

query: Short answer needed: outcome of this test for CCOC(=O)C(C)Oc1cccc2c(=O)n(CC(=O)Nc3ccc4c(c3)OCCO4)ccc12 (configuration not stated) ?
result: -1

* * *

# assay protocol: qHTS Screen of the MIPE 4.0 Collection Against Ewings Sarcoma (TC32) (AID 1259256);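 further: 100% = DMSO-treated cells and 0% = medium-only wells without cells; nearly all actives have a fitted effect of over 45% in size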
# test conditions: TC32 Ewing sarcoma viability, CellTiter-Glo, 48 h; series mostly up to 45.8 µM
Records with an inconclusive call do not appear. Calls of active or inactive are those of the source. The call rests on the fitted dose curve; in most records, active means well fitted inhibition curve with a large enough effect; inconclusive means small, poorly fitted or top-dose-only effect; inactive means no such curve, though single readings can be large or run the other way.
// one of 1 = active, -1 = inactive, no free text

query: Short answer needed: outcome of this test for `CCC[C@@H]1C[C@@H](C(=O)N[C@@H]([C@H]2O[C@H](SC)[C@H](O)[C@@H](O)[C@H]2O)[C@@H](C)O)N(C)C1` ?
result: -1

query: Short answer needed: outcome of this test for `CCCCCCCCCCCCCCCCCCCCCCO` ?
result: -1

* * *

# assay protocol: Quantitative High-Throughput drug screen in 47 multiple myeloma cell lines against the NCATS MIPE library collection: XG6_PLB cell viability assay (AID 1919865); further: nearly all actives have a fitted effect of over 40% in size; further: potency means the concentration at half of the fitted maximal effect
# test conditions: XG6 myeloma viability, CellTiter-Glo ATP luminescence, 48 h; series mostly up to 45.8 µM
Records with an inconclusive call do not appear. Activity calls are given as the source filed them. Calls come from the whole dose curve; as a rule, active = well fitted cell-killing curve with a large enough effect; inconclusive = small, poorly fitted or top-dose-only effect, or effect the other way; inactive = no such curve, though single readings can be large or run the other way.
measurement type: Potency

O=C1NC(=O)C(c2ccccc2[N+](=O)[O-])=C1Nc1ccc(O)c(Cl)c1: 6.62 µM (active)
Nc1nc(OCc2ccccc2)c2[nH]cnc2n1: 16.6 µM (active)
Cc1cc(=O)c2c(O)c3c(O)cc(=O)c4c3c3c(cc(O)c1c23)C(C)(C)C=4O: 0.743 µM (active)
C[C@]12CCC(=O)C=C1CC[C@@H]1[C@H]2[C@@H](O)C[C@@]2(C)[C@H]1CC[C@]2(O)C(=O)CO: 18.7 µM (active)
NS(=O)(=O)c1cc(C(=O)O)c(NCc2ccco2)cc1Cl: inactive
CC(C)Oc1ccc2c(=O)c(-c3ccccc3)coc2c1: inactive

query: Return reported Potency; argument: `Cc1ccc(Nc2nccc(N(C)c3ccc4c(C)n(C)nc4c3)n2)cc1S(N)(=O)=O`
result: 11.8 µM (active)

query: Return reported Potency; argument: `CN(C)C(=O)COC(=O)Cc1ccc(OC(=O)c2ccc(N=C(N)N)cc2)cc1`
result: 5.26 µM (active)

query: Return reported Potency; argument: `O=c1c(O)c(-c2cc(O)c(O)c(O)c2)oc2cc(O)cc(O)c12`
result: inactive

* * *

# assay protocol: qHTS profiling for inhibitors of Plasmodium falciparum proliferation (AID 504749); further: nearly all actives have a fitted effect of over 60% in size;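 on activity, negative = inhibition: 0% = DMSO vehicle and full inhibition = artemisinin control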
# test conditions: P. falciparum in erythrocytes, SYBR Green DNA, 72 h; at 28.7 µM (top of the series); parasite line A
Results filed as inconclusive are left out. Peptide text beside a SMILES is read from it.
measurement type: activity, negative = inhibition (%)
Write the number in % without appending the unit.

Please review the following examples before continuing.
COc1cc2c(cc1OC)C1CC(=O)C(CC(C)C)CN1CC2 (stereo unspecified): 3.41
O=C(O)CCNC(=O)c1ccc(N=Nc2ccc(O)c(C(=O)O)c2)cc1: 4.07
CCC1=C(C)CN(C(=O)NCCc2ccc(S(=O)(=O)NC(=O)NC3CCC(C)CC3)cc2)C1=O (stereo unspecified): 6.02
O=C(CS(=O)Cc1ccco1)NCC=CCOc1cc(CN2CCCCC2)ccn1 (stereo unspecified): 3.29
CC(S)C(=O)NCC(=O)O (stereo unspecified): 5.37
CC1=C(C)C(=O)C(C(CCCCCC(=O)O)c2ccccc2)=C(C)C1=O (stereo unspecified): -13.8

query: Return reported activity, negative = inhibition; argument: `N[C@@H](Cc1cc(I)c(Oc2cc(I)c(O)c(I)c2)c(I)c1)C(=O)O`
result: -3.11

query: Return reported activity, negative = inhibition; argument: `CC(C)c1ccc2oc3nc(N)c(C(=O)O)cc3c(=O)c2c1`
result: -29.9

query: Return reported activity, negative = inhibition; argument: `CN1CCC(=C2c3ccccc3CCc3sccc32)CC1`
result: -27.4

query: Return reported activity, negative = inhibition; argument: COC(=O)[C@H](Cc1ccccc1)NC(=O)[C@@H](N)CC(=O)O (H-Asp-Phe-OMe)
result: 5.55

query: Return reported activity, negative = inhibition; argument: `Nc1ccc(S(N)(=O)=O)cc1`
result: 13.4

query: Return reported activity, negative = inhibition; argument: `O=C(NCCO[N+](=O)[O-])c1cccnc1`
result: 22.6

query: Return reported activity, negative = inhibition; argument: `CCN(CC)CCOc1ccc(Cc2ccccc2)cc1`
result: 8.39

query: Return reported activity, negative = inhibition; argument: CCC(C)(Oc1ccc(C2(c3ccc(OC(C)(CC)C(=O)O)cc3)CCCCC2)cc1)C(=O)O (stereo unspecified)
result: 2.31

query: Return reported activity, negative = inhibition; argument: `C[C@H](Cn1cnc2c(N)ncnc21)OCP(=O)(O)O`
result: 2.65

query: Return reported activity, negative = inhibition; argument: `COC1=C(OC)C(=O)C(CCCCCCCCCCO)=C(C)C1=O`
result: -28.8

query: Return reported activity, negative = inhibition; argument: `C=C(c1ccc(C(=O)O)cc1)c1cc2c(cc1C)C(C)(C)CCC2(C)C`
result: -4.04

query: Return reported activity, negative = inhibition; argument: `Cc1cc2c(s1)Nc1ccccc1N=C2N1CCN(C)CC1`
result: 6.07

query: Return reported activity, negative = inhibition; argument: `CN(C)CCc1c[nH]c2ccc(Cn3cncn3)cc12`
result: 15.9

query: Return reported activity, negative = inhibition; argument: `CCOC(=O)c1c(C)n(C)c2ccc(O)cc12`
result: 15.4

query: Return reported activity, negative = inhibition; argument: `CN(c1nccc(=O)[nH]1)C1CCN(c2nc3ccccc3n2Cc2ccc(F)cc2)CC1`
result: -22.1
